All figures here come from paper PMC11992225.

Hi there, I'd appreciate the recorded Regrowth, OD600 at 6h or 8h after dilution into drug-free medium (average) for every entry that follows.
tested on: non-growing UPEC CFT073; test: Dilution-regrowth assay (screen, hit validation, dose-response) on stationary-phase UPEC; format: cell-based, Escherichia coli; details: E. coli in LPM (pH 5.5); drug concentration 0.5
Numbers only.

Fill in Regrowth, OD600 at 6h or 8h after dilution into drug-free medium (average) for each of the 4 compounds listed.
1. CCCCC(CC)CNC(=N)NC(=N)NCCCCCCNC(=N)NC(=N)NCC(CC)CCCC (stereo not shown) [Alexidine]
2. CO[C@@]12[C@H](COC(N)=O)C3=C(C(=O)C(C)=C(N)C3=O)N1C[C@@H]1N[C@@H]12 [Mitomycin C]
3. [H]/N=C(\N/C(=N/[H])NCCCCCCNC(=N)NC(=N)Nc1ccc(Cl)cc1)Nc1ccc(Cl)cc1 [Chlorhexidine]
4. CC(=O)[O][Pt]([NH2])([Cl])([Cl])([NH]C1CCCCC1)[O]C(C)=O [Satraplatin]

0.591
0.440
0.598
0.557

----------
Field: killing, average Δlog10(CFU/ml). Provide a value for each of the molecules that follow.
tested on: non-growing UPEC CFT073; assay: Dose-dependent killing analysis (CFU spot-plating) of stationary-phase UPEC; format: cell-based, Escherichia coli; conditions: E. coli in 1:4 CA-MHB (pH 7.4); drug concentration 1

Param item = `N[C@@H]1[C@H]2CN(c3nc4c(cc3F)c(=O)c(C(=O)O)cn4-c3ccc(F)cc3F)C[C@@H]12` ; retrieve measured killing, average Δlog10(CFU/ml).
0.839 log10(CFU/ml)

Provide each entry's killing, average Δlog10(CFU/ml) from the list below.
1. NC1CCN(c2nc3c(cc2F)c(=O)c(C(=O)O)cn3-c2ccc(F)cc2F)C1 (centres unmarked)
2. O=C(O)c1cn(-c2ccc(F)cc2)c2cc(N3CCNCC3)c(F)cc2c1=O
3. N[C@@H]1CN(c2c(F)cc3c(=O)c(C(=O)O)cn([C@@H]4C[C@@H]4F)c3c2Cl)CC12CC2

1.185 log10(CFU/ml)
0.391 log10(CFU/ml)
3.175 log10(CFU/ml)

Name the recorded killing, average Δlog10(CFU/ml) for `C[C@@H]1CN(c2c(F)c(N)c3c(=O)c(C(=O)O)cn(C4CC4)c3c2F)C[C@H](C)N1` .
0.246 log10(CFU/ml)

----------
test system: intracellular S. flexneri 5a M90T in TC7 cells; assay: microbe, parasite or virus in culture; format: cell-based, Shigella flexneri; conditions: TC7 cells infected with GFP-expressing S. flexneri, 14 h treatment, 4 x MIC
reported_property: Fluorescence intensity (RFU), Mean, 4 x MIC
Give bare numbers, in RFU.

Solved cases below.
Entry under review: `N[C@@H]1CCCCN(c2c(F)cc3c(=O)c(C(=O)O)cn(C4CC4)c3c2Cl)C1` . Reported Fluorescence intensity (RFU), Mean, 4 x MIC?
3977.14

What Fluorescence intensity (RFU), Mean, 4 x MIC value was documented for this molecule, `O=C(O)c1cn(-c2ccc(F)cc2)c2cc(N3CCNCC3)c(F)cc2c1=O` ?
3626.47

Reported Fluorescence intensity (RFU), Mean, 4 x MIC, molecule CC1Sc2c(C(=O)O)c(=O)c3cc(F)c(N4CCNCC4)cc3n21 (stereo not shown) : ____
4362.58

Look up Fluorescence intensity (RFU), Mean, 4 x MIC for this molecule: `COc1c(N2C[C@@H]3CCCN[C@@H]3C2)c(F)cc2c(=O)c(C(=O)O)cn(C3CC3)c12`
2897.78

Need Fluorescence intensity (RFU), Mean, 4 x MIC, item `CCN1CCN(c2cc3c(cc2F)c(=O)c(C(=O)O)cn3C2CC2)CC1`
1953.94

I'd like to know its Fluorescence intensity (RFU), Mean, 4 x MIC. The molecule in question is `CO[C@H]1/C=C/O[C@@]2(C)Oc3c(C)c(O)c4c(O)c(c(/C=N/N5CCN(C6CCCC6)CC5)c(O)c4c3C2=O)NC(=O)/C(C)=C\C=C\[C@H](C)[C@H](O)[C@@H](C)[C@@H](O)[C@@H](C)[C@H](OC(C)=O)[C@@H]1C`
1243.06

Let us move to another entry and its Fluorescence intensity (RFU), Mean, 4 x MIC.
# get_value(readout='Fluorescence intensity (RFU), Mean, 4 x MIC', item= Cn1c(COP(=O)(NCCBr)NCCBr)cnc1[N+](=O)[O-] [Evofosfamide] )
5305.28
